APOE RNA (% UTC): recorded values
test system: human APOE RNA; experiment: Dose-dependent inhibition of human APOE RNA in HepG2 cells, electroporation, 50,000 cells per well, RT-PCR normalized to GAPDH (Example 4, Tables 8-10); assay type: cell-based; conditions: 512 nM; HepG2, electroporation, 24-hour treatment
Strand notation (5' to 3'): a small letter for the sugar, then the base; units joined by * are phosphorothioate-linked, units joined directly phosphodiester-linked; [ ] holds rarer units or linkages, { } end groups; capitals alone tell only the bases. [ms] = mesyl phosphoramidate linkage; k = constrained ethyl (cEt); [5mC] = 5-methylcytosine; d = 2'-deoxy (DNA)
Kindly provide the numeric value in % UTC only, without the unit symbol.

| SUBSTANCE | APOE RNA (% UTC) |
| --- | --- |
| 1747053 (k[5mC]*dT[ms]dT[ms]kG*kG*kT*dG[ms]dA[ms]dA[ms]dT*d[5mC]*dT*dT*dT*dA[ms]dT*kT*dA[ms]dA[ms]kA; antisense) [Compound 1747053] | 49 |
| 1746806 (k[5mC]*kT*dT[ms]dG[ms]kG*dT[ms]dG[ms]dA[ms]dA[ms]dT*d[5mC]*dT*dT*dT*dA[ms]dT*dT[ms]kA*kA*kA; antisense) [Compound 1746806] | 80 |
| 1746794 (k[5mC]*kT*kT*dG[ms]dG[ms]dT[ms]dG[ms]dA[ms]dA[ms]dT*d[5mC]*dT*dT*dT*dA[ms]dT*kT*dA[ms]kA*kA; antisense) [Compound 1746794] | 72 |

Turning now to a further record.
QUERY: // lookup APOE RNA (% UTC) for 1746810 (k[5mC]*dT[ms]kT*dG[ms]dG[ms]kT*dG[ms]dA[ms]dA[ms]dT*d[5mC]*dT*dT*dT*dA[ms]dT*dT[ms]kA*kA*kA; antisense) [Compound 1746810]
RESULT: 46

----------
tested on: human APOE RNA; test: Dose-dependent inhibition of human APOE RNA in HepG2 cells, electroporation, 50,000 cells per well, RT-PCR normalized to GAPDH (Example 4, Tables 8-10); type: cell-based; details: HepG2 cells, electroporation, 24-hour treatment, 3,200 nM, Table 8
Strand notation (5' to 3'): a small letter for the sugar, then the base; units joined by * are phosphorothioate-linked, units joined directly phosphodiester-linked; [ ] holds rarer units or linkages, { } end groups; capitals alone tell only the bases. [ms] = mesyl phosphoramidate linkage; e = 2'-O-(2-methoxyethyl) (MOE); k = constrained ethyl (cEt); [5mC] = 5-methylcytosine; d = 2'-deoxy (DNA)
PARAMETER: APOE RNA (% UTC) 3,200 nM
Put your answer as a value accompanied by its unit after it.

Known APOE RNA (% UTC) 3,200 nM results, listed for orientation:
| SUBSTANCE | APOE RNA (% UTC) 3,200 nM |
| --- | --- |
| 1778128: modified oligonucleotide complementary to human APOE RNA (eA*e[5mC]eTeTkGkG*dT*dG[ms]dA[ms]dA*dT*d[5mC]*dT*dT*dT*dA[ms]kTeT*eA*eA; antisense) [compound 1778128] | 9 % UTC |
| 1785604: modified oligonucleotide complementary to human APOE RNA (k[5mC]*dT[ms]dT[ms]kG*dG[ms]kT*dG[ms]dA[ms]dA*dT*d[5mC]*dT*dT*dT*dA*dT*kT*kA*dA[ms]kA; antisense) [compound 1785604] | 47 % UTC |
| ^mCksTksTksGdzGdzTdzGdzAdzAdzTds^mCdsTdsTdsTdsAdsTdsTksAksAdzAk (antisense k[5mC]*kT*kT*dG[ms]dG[ms]dT[ms]dG[ms]dA[ms]dA[ms]dT*d[5mC]*dT*dT*dT*dA*dT*kT*kA*dA[ms]kA) [Compound No. 1785602] | 11 % UTC |
| 1778123: modified oligonucleotide complementary to human APOE RNA (eA*e[5mC]eTeTeG*eG*dT*dG[ms]dA[ms]dA*dT*d[5mC]*dT*dT*dT*dA[ms]kTkT*eA*eA; antisense) [compound 1778123] | 11 % UTC |
| Aes^mCeoTeoTesGesGksTdsGdzAdzAdzTds^mCdsTdsTdsTdsAdzTksTksAesAe (eA*e[5mC]eTeT*eG*kG*dT*dG[ms]dA[ms]dA[ms]dT*d[5mC]*dT*dT*dT*dA[ms]kT*kT*eA*eA) [Compound No. 1757576] | 11 % UTC |

QUERY: // lookup APOE RNA (% UTC) 3,200 nM for 1778125: modified oligonucleotide complementary to human APOE RNA (eA*e[5mC]eTeTeGeG*dT*dG[ms]dA[ms]dA*dT*d[5mC]*dT*dT*dT*dA[ms]kTkT*eA*eA; antisense) [compound 1778125]
RESULT: 17 % UTC

QUERY: // lookup APOE RNA (% UTC) 3,200 nM for 1785599: modified oligonucleotide complementary to human APOE RNA (k[5mC]*kT*kT*dG[ms]dG[ms]dT[ms]dG[ms]dA[ms]dA[ms]dT[ms]d[5mC]*dT*dT*dT*dA*dT*kT*kA*dA[ms]kA; antisense) [compound 1785599]
RESULT: 21 % UTC

QUERY: // lookup APOE RNA (% UTC) 3,200 nM for 1778154: modified oligonucleotide complementary to human APOE RNA (e[5mC]*eT*eTeGeGeT*dG[ms]dA[ms]dA*dT*d[5mC]*dT*dT*dT*dA*dT*kTkAeA*eA; antisense) [compound 1778154]
RESULT: 22 % UTC

----------
system: human APOE RNA; assay: Dose-dependent inhibition of human APOE RNA in HepG2 cells, electroporation, 24 hours (Example 6); format: cell-based; conditions: 20,000 nM
Strand notation (5' to 3'): a small letter for the sugar, then the base; units joined by * are phosphorothioate-linked, units joined directly phosphodiester-linked; [ ] holds rarer units or linkages, { } end groups; capitals alone tell only the bases. [ms] = mesyl phosphoramidate linkage; e = 2'-O-(2-methoxyethyl) (MOE); k = constrained ethyl (cEt); [5mC] = 5-methylcytosine; d = 2'-deoxy (DNA)
APOE RNA (% UTC): recorded values
Put your answer as a value accompanied by its unit after it.

Known APOE RNA (% UTC) results, listed for orientation:
| SUBSTANCE | APOE RNA (% UTC) |
| --- | --- |
| 1736535 (e[5mC]*eT*eT*eG*eGkT*dG[ms]dA[ms]dA[ms]dT*d[5mC]*dT*dT*dT*dA[ms]dT*eT*eA*eA*eA; antisense) [Compound 1736535] | 13 % UTC |
| 1736533 (e[5mC]*eT*eT*eG*eGeT*dG[ms]dA[ms]dA[ms]dT*d[5mC]*dT*dT*dT*dA[ms]dT*kT*eA*eA*eA; antisense) [Compound 1736533] | 5 % UTC |

QUERY: // lookup APOE RNA (% UTC) for 1736536 (e[5mC]*eT*eT*eG*kGkT*dG[ms]dA[ms]dA[ms]dT*d[5mC]*dT*dT*dT*dA[ms]dT*eT*eA*eA*eA; antisense) [Compound 1736536]
RESULT: 6 % UTC

----------
system: human APOE RNA; experiment: Duration of action study in APOE C57BL/6NTac-Apoeem7250 knock-in mice (Example 16); format: in vivo; details: cortex; 300 μg ICV; 14 days post-dose
Strand notation (5' to 3'): a small letter for the sugar, then the base; units joined by * are phosphorothioate-linked, units joined directly phosphodiester-linked; [ ] holds rarer units or linkages, { } end groups; capitals alone tell only the bases. [PN] = cyclic guanidine phosphoramidate internucleoside linkage; [ms] = mesyl phosphoramidate linkage; e = 2'-O-(2-methoxyethyl) (MOE); k = constrained ethyl (cEt); [5mC] = 5-methylcytosine; d = 2'-deoxy (DNA)
Rule: measured APOE RNA (% control) Cortex below 40 % control gets satisfied; anything equal to or greater than 40 % control gets not satisfied.

The following substances have reported results that may help.
| SUBSTANCE | ASSIGNED CATEGORY |
| --- | --- |
| 1721307: 6-10-4 MOE gapmer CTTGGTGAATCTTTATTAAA, linkages s[pn][pn][pn]oossssssssssoss (e[5mC]*eT[PN]eT[PN]eG[PN]eGeTdG*dA*dA*dT*d[5mC]*dT*dT*dT*dA*dT*eTeA*eA*eA) [compound 1721307] | satisfied |
| 1721306: 6-10-4 MOE gapmer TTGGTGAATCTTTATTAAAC, linkages s[pn][pn][pn]oosssssszzss[n]ss (as printed) (sugars from the 5' end e6 d10 e4, all C 5-methyl, backbone not given here; further chemistry not fully specified) [compound 1721306] | not satisfied |
| 1721305: 6-10-4 MOE gapmer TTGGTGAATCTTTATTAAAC, linkages s[pn][pn][pn]oossssssssss[pn]ss (eT*eT[PN]eG[PN]eG[PN]eTeGdA*dA*dT*d[5mC]*dT*dT*dT*dA*dT*dT*eA[PN]eA*eA*e[5mC]) [compound 1721305] | not satisfied |
| 1721310: 6-10-4 MOE gapmer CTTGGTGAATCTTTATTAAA, linkages s[pn][pn][pn]oossssssszzs[pn]ss (e[5mC]*eT[PN]eT[PN]eG[PN]eGeTdG*dA*dA*dT*d[5mC]*dT*dT*dT[ms]dA[ms]dT*eT[PN]eA*eA*eA) [compound 1721310] | satisfied |
| 1721303: 6-10-4 MOE gapmer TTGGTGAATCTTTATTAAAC, linkages s[pn][pn][pn]oossssssssssoss (eT*eT[PN]eG[PN]eG[PN]eTeGdA*dA*dT*d[5mC]*dT*dT*dT*dA*dT*dT*eAeA*eA*e[5mC]) [compound 1721303] | satisfied |
| 1721309: 6-10-4 MOE gapmer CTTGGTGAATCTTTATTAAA, linkages s[pn][pn][pn]oossssssssss[pn]ss (e[5mC]*eT[PN]eT[PN]eG[PN]eGeTdG*dA*dA*dT*d[5mC]*dT*dT*dT*dA*dT*eT[PN]eA*eA*eA) [compound 1721309] | not satisfied |

QUERY: A record lists Aks^mCeoTeoTesGesGksTdsGdzAdzAdzTds^mCdsTdsTdsTdsAdzTksTksAesAe (kA*e[5mC]eTeT*eG*kG*dT*dG[ms]dA[ms]dA[ms]dT*d[5mC]*dT*dT*dT*dA[ms]kT*kT*eA*eA) [Compound No. 1809635] . Is its APOE RNA (% control) Cortex below 40 % control?
RESULT: satisfied
